# experiment_description: basal HepG2 mitochondrial membrane potential changes, profiling panel, cell-based, JC-1 fluorescence, 24 h, 100 nL compound (AID 1167); also: test concentration not given here
# applied_conditions: higher = more signal
Binary classification by z-score, with -0.2 as an inclusive lower bound for rule met; all other cases are rule not met.

Some solved cases for reference:
COC(=O)C[C@H]1O[C@]2(C(=O)N(C)c3ccccc32)[C@@H](C)[C@@H]1[Si](C)(C)F	rule met
CN(C)CCCCCCNC(=O)[C@H]1C[C@H]2C(=O)N3CCC[C@H]3C(=O)N2[C@H]1c1ccc(O)cc1	rule met
CCCC[C@@H]1C[C@H]1[C@@H](NC(=O)c1ccco1)c1ccc(-c2ccccc2)cc1	rule not met

Determine whether measured z-score meets or exceeds -0.2 for NC(=O)NCC#Cc1ccc2c(c1)[C@]1(C(=O)N2)[C@H](c2ccc(O)cc2)N2[C@H](c3ccccc3)[C@H](c3ccccc3)OC(=O)[C@H]2[C@@H]1C(=O)O rule not met

Then what about the compound CC(C)C(=C=CC[C@@H](O)c1ccc(OCCO)cc1)C[C@@H](O)COCc1ccccc1 ? rule met

Then what about the compound COCCOC(=O)N1C(=O)[C@@]2(c3cc(C#CCCO)ccc31)[C@H](C(=O)N1CCCCCCC1)[C@H]1C(=O)O[C@H](c3ccccc3)[C@H](c3ccccc3)N1[C@@H]2c1ccc(OCCO)cc1 ? rule not met

Then what about the compound NC(=O)[C@@H]1[C@H]2C(=O)O[C@H](c3ccccc3)[C@H](c3ccccc3)N2[C@H](c2ccc(O)cc2)[C@@]12C(=O)Nc1ccccc12 ? rule not met

Then what about the compound O[C@@H](Cc1ccccc1)[C@H]1C2C=CCCC=C2CN1Cc1cccc(Cl)c1 (stereo partly drawn) ? rule not met

Each recorded value in this set is attributed to PubChem BioAssay.
